System: 120 GPCR targets, including all available orphan receptors and 27 known class A peptide receptors
Assay: Peptide library screen, β-arrestin recruitment (Tango, fold change, 10 μM)
Format: cell-based, human
Conditions: repeat hitters of the peptide library screen; the value names the known receptor(s) confirmed in the β-arrestin recruitment (Tango) screen
experimental.endpoint: Confirmation of known target in Tango

* DRMPCRNFFWKTFSSCK (disulfide) [Peptide 121] | SST2
* SRTHRHSMEIRTPDINPAWYASRGIRPVGRF [Peptide 183] | PrRP
* ILQRGSGTAAVDFTKKDHTATWGRPFFLFRPRN [Peptide 195] | NMUR1
* AGCKNFFWKTFTSC (disulfide) [Peptide 103] | SST2

###

Target: GPR55 (Homo sapiens, UniProt Q9Y2T6)
Sequence (Q9Y2T6 2-319 limits assumed): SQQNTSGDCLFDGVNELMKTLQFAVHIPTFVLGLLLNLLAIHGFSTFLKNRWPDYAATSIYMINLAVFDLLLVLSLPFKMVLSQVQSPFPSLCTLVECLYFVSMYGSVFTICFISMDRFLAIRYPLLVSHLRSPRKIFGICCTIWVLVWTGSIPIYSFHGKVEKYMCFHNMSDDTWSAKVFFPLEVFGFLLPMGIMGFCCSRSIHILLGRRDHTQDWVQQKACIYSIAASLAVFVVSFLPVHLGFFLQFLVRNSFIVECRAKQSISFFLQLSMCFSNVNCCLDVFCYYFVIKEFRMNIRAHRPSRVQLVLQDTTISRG
Experiment: Dynamic mass redistribution (DMR), concentration-response
Format: cell-based
Set-up: hIL-2Ra signal peptide (N); expressed in transfected cells
Conditions: receptor GPR55; mean, SEM and n (2-4); read-out: DMR assays pEC50 (converted)
experimental.endpoint: EC50 (nM)
Give the value, in units of nM, as a plain number.

Input: Any idea what EC50 was measured for CC[C@H](C)[C@H](NC(=O)CNC(=O)[C@H](CC(=O)O)NC(=O)[C@H](CO)NC(=O)[C@@H](N)Cc1c[nH]cn1)C(=O)N[C@@H](Cc1ccccc1)C(=O)N[C@H](C(=O)N[C@@H](CC(=O)O)C(=O)N[C@@H](CO)C(=O)N[C@@H](Cc1ccc(O)cc1)C(=O)N[C@@H](CO)C(=O)N[C@@H](CCCNC(=N)N)C(=O)N[C@@H](Cc1ccc(O)cc1)C(=O)N[C@@H](CCCNC(=N)N)C(=O)N[C@@H](CCCCN)C(=O)N[C@@H](CCC(N)=O)C(=O)N[C@@H](CCSC)C(=O)N[C@@H](C)C(=O)N[C@H](C(=O)O)C(C)C)[C@@H](C)O [Peptide 168.5] ?
Output: 1

###

Catalogue of EC50 values
Molecular target: GPR55 (Homo sapiens)
Test: Dynamic mass redistribution (DMR), concentration-response
Assay type: cell-based
Design: hIL-2Ra signal peptide (N); expressed in transfected cells
Conditions: receptor GPR55; mean, SEM and n (2-4); read-out: DMR assays pEC50 (converted)
Residues, ends and D or L forms follow the SMILES beside them.
Give the value, in units of nM, as a plain number.

Observe how each entry below is paired with its result.
- C[C@H](NC(=O)[C@@H](N)Cc1c[nH]c2ccccc12)C(=O)N[C@@H](CCCNC(=N)N)C(=O)NCC(=O)N[C@@H](CS)C(=O)N[C@@H](CO)C(=O)N[C@H](C(=O)NCC(=O)N[C@@H](CC(N)=O)C(=O)O)[C@@H](C)O [Peptide 213.2] (H-WARGCSTGN-OH): 0.0676
- CC(C)C[C@H](NC(=O)[C@@H](N)CC(=O)O)C(=O)N[C@@H](CC(C)C)C(=O)N1CCC[C@H]1C(=O)O [Peptide 213.1] (H-DLLP-OH): 0.00724

Lab note: next compound to report on.
Input: Any idea what EC50 was measured for CC[C@H](C)[C@H](NC(=O)[C@H](CC(=O)O)NC(=O)[C@@H](NC(=O)[C@H](Cc1ccc(O)cc1)NC(=O)[C@@H](NC(=O)CNC(=O)[C@H](CC(N)=O)NC(=O)[C@@H](NC(=O)[C@H](CC(C)C)NC(=O)[C@H](Cc1ccc(O)cc1)NC(=O)[C@H](CC(=O)O)NC(=O)[C@H](CC(C)C)NC(=O)[C@H](CCCNC(=N)N)NC(=O)[C@H](CO)NC(=O)[C@H](Cc1ccc(O)cc1)NC(=O)[C@H](CCCNC(=N)N)NC(=O)[C@@H](N)CCCCN)[C@@H](C)CC)[C@@H](C)CC)C(C)C)C(=O)O [114 resynthesized] (H-KRYSRLDYLINGIYVDI-OH) ?
Output: 3890

###

Target: MAS1 (Homo sapiens)
Construct: host or cells: HTLA cells (HEK293-derived)
Sequence (P04201 whole entry): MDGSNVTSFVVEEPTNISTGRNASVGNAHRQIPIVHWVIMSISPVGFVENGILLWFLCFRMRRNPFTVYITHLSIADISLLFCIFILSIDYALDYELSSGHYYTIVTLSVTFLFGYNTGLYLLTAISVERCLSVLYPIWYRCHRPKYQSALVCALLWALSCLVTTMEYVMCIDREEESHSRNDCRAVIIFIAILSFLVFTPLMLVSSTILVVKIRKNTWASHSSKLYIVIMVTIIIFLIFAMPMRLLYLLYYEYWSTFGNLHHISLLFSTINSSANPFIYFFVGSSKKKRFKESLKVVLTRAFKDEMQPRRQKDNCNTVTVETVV
Assay: β-arrestin recruitment (Tango), indicative pairing
Type: cell-based
Conditions: mean, n = 3
experimental.endpoint: pEC50, Tango (fold over basal)
Keep the answer to the number alone.

Observe how each entry below is paired with its result.
• NAWGPWSKEQLSPQAREFWSLAAPQRF [Peptide 166] = 7.14
• YGGFLRRIRPKLKWDNQ [Peptide 119] = 5.04
• AGCKNFFWKTFTSC (disulfide) [Peptide 103] = 4.33
• DRMPCRNFFWKTFSSCK (disulfide) [Peptide 121] = 4.96

Lab note: next sequence to report on.
Input: Any idea what pEC50, Tango (fold over basal) was measured for KPLRKDENGTSVAEYPMSASQSNKGVDVNNAVV [Peptide 193] ?
Output: 9.32

###

Target: BB3 (Homo sapiens)
Construct: hIL-2Ra signal peptide (N); expressed in transfected cells
Sequence (P32247 2-399 limits assumed): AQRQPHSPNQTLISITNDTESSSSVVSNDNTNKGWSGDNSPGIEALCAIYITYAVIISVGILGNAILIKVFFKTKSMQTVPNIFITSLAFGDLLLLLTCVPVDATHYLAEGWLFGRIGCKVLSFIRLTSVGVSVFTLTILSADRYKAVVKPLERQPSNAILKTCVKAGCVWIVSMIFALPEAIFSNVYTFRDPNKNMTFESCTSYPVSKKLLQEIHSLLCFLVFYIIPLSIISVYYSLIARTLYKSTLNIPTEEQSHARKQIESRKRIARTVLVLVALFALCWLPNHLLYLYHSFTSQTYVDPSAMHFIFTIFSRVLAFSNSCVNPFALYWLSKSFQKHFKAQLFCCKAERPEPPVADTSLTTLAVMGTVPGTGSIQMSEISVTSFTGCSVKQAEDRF
Test: IP1 accumulation (Gq/11), HTRF
Type: cell-based
Residues, ends and D or L forms follow the SMILES beside them.
experimental.endpoint: pEC50
Scale: negative log10 of molar concentration, which is what pEC50 denotes.

* CSCC[C@H](NC(=O)[C@H](Cc1c[nH]c2ccccc12)NC(=O)[C@H](Cc1c[nH]c2ccccc12)NC(=O)[C@H](CCC(=O)O)NC(=O)[C@@H]1CCCN1)C(=O)N[C@@H](CC(=O)O)C(=O)N[C@@H](Cc1ccc(O)cc1)C(=O)N[C@@H](CCC(N)=O)C(=O)N[C@@H](CCCCN)C(=O)N[C@@H](CCCNC(=N)N)C(=O)N[C@@H](Cc1ccc(O)cc1)C(=O)NCC(=O)NCC(=O)N[C@@H](Cc1ccccc1)C(=O)N[C@@H](CC(C)C)C(=O)O [Peptide 158.6] (H-PEWWMDYQKRYGGFL-OH) | 4.50

Lab note: next compound to report on.
Input: Any idea what pEC50 was measured for "CC(C)C[C@H](NC(=O)[C@H](Cc1ccccc1)NC(=O)CNC(=O)CNC(=O)[C@@H](N)Cc1ccc(O)cc1)C(=O)O" ?
Output: 7.80

###

System: 120 GPCR targets, including all available orphan receptors and 27 known class A peptide receptors
Assay: Peptide library screen, β-arrestin recruitment (Tango, fold change, 10 μM)
Format: cell-based, human
Details: Tango; receptor(s) at which the known library peptide was active, among its known GPCR target(s); validated pairings
experimental.endpoint: Active at: (activity in b-arrestin recruitment assays)

• YVMGHFRWDRF [Peptide 74] = MC4R
• MPHSFANLPLRF [Peptide 86] = NPFF1
• SQAFLFQPQRF [Peptide 75] = NPFF1
• AADHDVGSELPPEGVLGALLRV [Peptide 146] = GPR83

Input: Any idea what Active at: (activity in b-arrestin recruitment assays) was measured for FVPIFTYGELQRMQEKERNKGQ [Peptide 145] ?
Output: MLNR
